# System: antidiuretic response to ADH (arginine vasopressin)
# experiment-description: Antagonism of the antidiuretic response to ADH (anti-antidiuretic potency) in ethanol-anesthetized water-loaded rats
# stated-conditions: estimated in vivo pA2 = negative logarithm of effective dose divided by estimated volume of distribution (67 mL/kg); (n) in parentheses
# Description: Activity as antidiuretic agonists was determined by intravenous injection of compounds being evaluated into ethanol-anesthesized water-loaded rats in accordance with Sawyer et al., Endocrinology, vol. 63 (1958) at 694. Antagonistic potencies were determined and expressed as "effective doses" and as pA2 values. […]
*1 amine or outer side, *2 acyl side, *3 side chain or, on linkers, in order; H or OH if unused. Where a SMILES comes first, the peptide text is derived from it. Bridges are numbered along the chain shown (N, C = ends). [ ]: non-standard residue; d: D form. The star is where a group is joined. X1 = O=C(CC1(S[*:2])CCCCC1)[*:1]; Propyl = CCC*

{"compound": "CCCOc1ccc(C[C@@H]2NC(=O)CC3(CCCCC3)SSC[C@@H](C(=O)N3CCC[C@H]3C(=O)N[C@@H](CCCNC(=N)N)C(=O)NCC(N)=O)NC(=O)[C@H](CC(N)=O)NC(=O)[C@H](C(C)C)NC(=O)[C@H](Cc3ccccc3)NC2=O)cc1 [d(CH2)5 Tyr(n-Pr) VAVP] (Y(Propyl)FVNCPRG-NH2; linker N-5 via X1)", "Anti-Antidiuretic pA2": 7.29}
{"compound": "COc1ccc(C[C@H]2NC(=O)CC3(CCCCC3)SSC[C@@H](C(=O)N3CCC[C@H]3C(=O)N[C@@H](CCCNC(=N)N)C(=O)NCC(N)=O)NC(=O)[C@H](CC(N)=O)NC(=O)[C@H](C(C)C)NC(=O)[C@H](Cc3ccccc3)NC2=O)cc1 [d(CH2)5 --D-Tyr(Me) VAVP] ([dY](Me)FVNCPRG-NH2; linker N-5 via X1)", "Anti-Antidiuretic pA2": 7.77}

---

# Test system: antidiuretic response to ADH (arginine vasopressin)
# experiment-description: Antagonism of the antidiuretic response to ADH (anti-antidiuretic potency) in ethanol-anesthetized water-loaded rats
# stated-conditions: estimated in vivo pA2 = negative logarithm of effective dose divided by estimated volume of distribution (67 mL/kg); (n) in parentheses
*1 amine or outer side, *2 acyl side, *3 side chain or, on linkers, in order; H or OH if unused. Where a SMILES comes first, the peptide text is derived from it. Bridges are numbered along the chain shown (N, C = ends). [ ]: non-standard residue; d: D form. The star is where a group is joined. X1 = O=C(CC1(S[*:2])CCCCC1)[*:1]; Propyl = CCC*

{"compound": "CC(C)C[C@H]1NC(=O)CC2(CCCCC2)SSC[C@@H](C(=O)N2CCC[C@H]2C(=O)N[C@@H](CCCNC(=N)N)C(=O)NCC(N)=O)NC(=O)[C@H](CC(N)=O)NC(=O)[C@H](C(C)C)NC(=O)[C@H](Cc2ccccc2)NC1=O [d(CH2)5 [D-Leu^2] VAVP] ([dL]FVNCPRG-NH2; linker N-5 via X1)", "qual": "=", "Anti-Antidiuretic pA2": 7.79}
{"compound": "CCOc1ccc(C[C@H]2NC(=O)CC3(CCCCC3)SSC[C@@H](C(=O)N3CCC[C@H]3C(=O)N[C@@H](CCCNC(=N)N)C(=O)NCC(N)=O)NC(=O)[C@H](CC(N)=O)NC(=O)[C@H](C(C)C)NC(=O)[C@H](Cc3ccccc3)NC2=O)cc1 [d(CH2)5 --D-Tyr(Et) VAVP] ([dY](Et)FVNCPRG-NH2; linker N-5 via X1)", "qual": "=", "Anti-Antidiuretic pA2": 7.81}
{"compound": "COc1ccc(C[C@@H]2NC(=O)CC3(CCCCC3)SSC[C@@H](C(=O)N3CCC[C@H]3C(=O)N[C@H](CCCNC(=N)N)C(=O)NCC(N)=O)NC(=O)[C@H](CC(N)=O)NC(=O)[C@H](C(C)C)NC(=O)[C@H](Cc3ccccc3)NC2=O)cc1 [d(CH2)5 Tyr(Me) VDAVP] (Y(Me)FVNCP[dR]G-NH2; linker N-5 via X1)", "qual": "=", "Anti-Antidiuretic pA2": 6.68}
{"compound": "CCCOc1ccc(C[C@@H]2NC(=O)CC3(CCCCC3)SSC[C@@H](C(=O)N3CCC[C@H]3C(=O)N[C@H](CCCNC(=N)N)C(=O)NCC(N)=O)NC(=O)[C@H](CC(N)=O)NC(=O)[C@H](C(C)C)NC(=O)[C@H](Cc3ccccc3)NC2=O)cc1 [d(CH2)5 Tyr(n-Pr) VDAVP] (Y(Propyl)FVNCP[dR]G-NH2; linker N-5 via X1)", "qual": "=", "Anti-Antidiuretic pA2": 6.67}
{"compound": "CC(C)[C@@H]1NC(=O)[C@H](Cc2ccccc2)NC(=O)[C@@H](CCCNC(=N)N)NC(=O)CC2(CCCCC2)SSC[C@@H](C(=O)N2CCC[C@H]2C(=O)N[C@@H](CCCNC(=N)N)C(=O)NCC(N)=O)NC(=O)[C@H](CC(N)=O)NC1=O [d(CH2)5 [D-Arg^2] VAVP] ([dR]FVNCPRG-NH2; linker N-5 via X1)", "qual": "<", "Anti-Antidiuretic pA2": 5.9}
{"compound": "COc1ccc(C[C@@H]2NC(=O)CC3(CCCCC3)SSC[C@@H](C(=O)N3CCC[C@H]3C(=O)N[C@@H](CCCNC(=N)N)C(=O)NCC(N)=O)NC(=O)[C@H](CC(N)=O)NC(=O)[C@H](C(C)C)NC(=O)[C@H](Cc3ccccc3)NC2=O)cc1 [d(CH2)5 Tyr(Me) VAVP] (Y(Me)FVNCPRG-NH2; linker N-5 via X1)", "qual": "=", "Anti-Antidiuretic pA2": 7.35}

---

# System: antidiuretic response to ADH (arginine vasopressin)
# experiment-description: Antagonism of the antidiuretic response to ADH (anti-antidiuretic potency) in ethanol-anesthetized water-loaded rats
# stated-conditions: estimated in vivo pA2 = negative logarithm of effective dose divided by estimated volume of distribution (67 mL/kg); (n) in parentheses
*1 amine or outer side, *2 acyl side, *3 side chain or, on linkers, in order; H or OH if unused. Where a SMILES comes first, the peptide text is derived from it. Bridges are numbered along the chain shown (N, C = ends). [ ]: non-standard residue; d: D form. X1 = O=C(CC1(S[*:2])CCCCC1)[*:1]

{"compound": "CC[C@@H](C)[C@H]1NC(=O)CC2(CCCCC2)SSC[C@@H](C(=O)N2CCC[C@H]2C(=O)N[C@@H](CCCNC(=N)N)C(=O)NCC(N)=O)NC(=O)[C@H](CC(N)=O)NC(=O)[C@H](C(C)C)NC(=O)[C@H](Cc2ccccc2)NC1=O [d(CH2)5 [D-Ile^2] VAVP] ([dI]FVNCPRG-NH2; linker N-5 via X1)", "Anti-Antidiuretic pA2": 7.98}
{"compound": "CCOc1ccc(C[C@@H]2NC(=O)CC3(CCCCC3)SSC[C@@H](C(=O)N3CCC[C@H]3C(=O)N[C@@H](CCCNC(=N)N)C(=O)NCC(N)=O)NC(=O)[C@H](CC(N)=O)NC(=O)[C@H](C(C)C)NC(=O)[C@H](Cc3ccccc3)NC2=O)cc1 [d(CH2)5 Tyr(Et) VAVP] (Y(Et)FVNCPRG-NH2; linker N-5 via X1)", "Anti-Antidiuretic pA2": 7.57}
{"compound": "CC(C)[C@@H]1NC(=O)[C@H](Cc2ccccc2)NC(=O)[C@@H](C(C)C)NC(=O)CC2(CCCCC2)SSC[C@@H](C(=O)N2CCC[C@H]2C(=O)N[C@@H](CCCNC(=N)N)C(=O)NCC(N)=O)NC(=O)[C@H](CC(N)=O)NC1=O [d(CH2)5 [D-Val^2] VAVP] ([dV]FVNCPRG-NH2; linker N-5 via X1)", "Anti-Antidiuretic pA2": 7.48}
